Target: T1, mouse DLL4 extracellular domain (mouse, UniProt Q9JI71 27-532)
T1 construct: extracellular domain; also called muDLL4 ECD; murine DLL4
T1 sequence (Q9JI71 27-532): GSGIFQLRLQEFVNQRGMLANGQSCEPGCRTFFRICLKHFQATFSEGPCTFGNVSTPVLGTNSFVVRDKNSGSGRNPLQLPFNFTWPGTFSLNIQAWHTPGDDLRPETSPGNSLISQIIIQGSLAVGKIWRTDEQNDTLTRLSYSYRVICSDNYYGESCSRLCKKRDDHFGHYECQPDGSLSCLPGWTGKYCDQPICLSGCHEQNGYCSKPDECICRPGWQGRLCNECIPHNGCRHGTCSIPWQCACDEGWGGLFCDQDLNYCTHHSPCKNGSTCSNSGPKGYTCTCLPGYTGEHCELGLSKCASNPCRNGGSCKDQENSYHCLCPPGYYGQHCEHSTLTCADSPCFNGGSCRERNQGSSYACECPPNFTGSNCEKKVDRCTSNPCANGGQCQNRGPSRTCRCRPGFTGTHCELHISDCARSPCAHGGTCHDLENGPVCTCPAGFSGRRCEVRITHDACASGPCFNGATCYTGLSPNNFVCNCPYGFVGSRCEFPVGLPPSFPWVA
Assay: SPR (Biacore)
pKd: −log10 of the molar value.
Observation type: pKd

| Binder | Observation type | Value |
| --- | --- | --- |
| h1A11.F5 (antibody, V domains shown, also called h1A11.F5 VH / h1A11.E12 VL) VH: EVQLVESGGGLVQPGGSLRLSCAASGFTFRHFPMAWVRQAPGKGLEWVATISSSDAWPSYRDSVKGRFTISRDNAKNSLYLQMNSLRAEDTAVYYCARGYYNSPFAYWGQGTLVTVSS VL: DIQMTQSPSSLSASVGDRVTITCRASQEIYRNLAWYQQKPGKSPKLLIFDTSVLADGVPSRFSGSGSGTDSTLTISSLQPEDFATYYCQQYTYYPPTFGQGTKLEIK | pKd | 9.55 |
